tested on: HEK-293T; assay: Multiplex assay against HEK293T; type: toxicity, cell-based; conditions: human, 48 h, 1 µM, compound concentration 1 uM, number of replicates 2
Below is a list of entries, each paired with its recorded Population Pyknosed Nuclei (%) value.

Give recorded Population Pyknosed Nuclei (%) with HEK-293T for the following compound: CNc1ncc2cc(-c3ccc(-c4cccc(C)n4)cc3Cl)c(=O)n(C[C@H]3OC[C@H](N)CO3)c2n1
4%

Give recorded Population Pyknosed Nuclei (%) with HEK-293T for the following compound: CNS(=O)(=O)c1ccc(N(C)C)c(Nc2ncnc3cc(OC)c(OC)cc23)c1
3%

Give recorded Population Pyknosed Nuclei (%) with HEK-293T for the following compound: CC(C)N1CCN(Cc2cnc(-c3cc(-c4cccc5[nH]ccc45)cc4[nH]ncc34)o2)CC1 [NEMIRALISIB]
4%

###

tested on: HEK-293T; assay: Multiplex assay against HEK293T; assay type: toxicity, cell-based; settings: human, 48 h, 1 µM, compound concentration 1 uM, number of replicates 2
Below is a list of entries, each paired with its recorded Population Membrane Permeable-Phenotype (%) value.
Give just the numeric value; % need not be written.

Consider the reported Population Membrane Permeable-Phenotype (%) for these compounds:
Using the record for COc1cc(C(N)=O)ccc1Nc1ncc2c(n1)N(CCC(C)C)[C@H](C)C(=O)N2C , report its Population Membrane Permeable-Phenotype (%).
1

Using the record for O=C1NC(=NCc2cccs2)SC1=Cc1ccc2ncccc2c1 , report its Population Membrane Permeable-Phenotype (%).
5

Using the record for CN1CCc2cc(Nc3ncc(C(F)(F)F)c(NCc4cc[nH]n4)n3)ccc2C1 , report its Population Membrane Permeable-Phenotype (%).
1

Using the record for COc1ccc(CC[C@@H](OC(=O)[C@@H]2CCCCN2C(=O)[C@H](c2cc(OC)c(OC)c(OC)c2)C2CCCCC2)c2cccc(OCCN3CCOCC3)c2)cc1OC , report its Population Membrane Permeable-Phenotype (%).
6

Using the record for CC(C)c1cc(-c2ccc(F)c3ccccc23)nc(N)n1 , report its Population Membrane Permeable-Phenotype (%).
5

New cases:
Using the record for COC(=O)Nc1nc2c(s1)-c1c(c(-c3cccnc3)nn1-c1ccc(C3(N(C)C)CC3)cc1)CC2.Cl.Cl , report its Population Membrane Permeable-Phenotype (%).
1

###

system: HEK-293T; test: Multiplex assay against HEK293T; type: toxicity, cell-based; conditions: human, 48 h, 1 µM, compound concentration 1 uM, number of replicates 2
measurement name: Population Normal (%)
Give just the numeric value; % need not be written.

Using the record for COc1cc(N(C)c2ccnc3ccc(C(F)(F)F)cc23)cc(OC)c1OC , report its Population Normal (%).
92

New cases:
Using the record for COc1ccncc1C(=O)NC(=O)Nc1ccc(-c2ccccc2)c(C(F)(F)F)c1 , report its Population Normal (%).
90

Using the record for O=C(Nc1ccnc(NC(=O)C2CC2)c1)c1c(Cl)cccc1Cl , report its Population Normal (%).
92

###

Below is a list of entries, each paired with its recorded Population Pyknosed Nuclei (%) value.
test system: HEK-293T; test: Multiplex assay against HEK293T; type: toxicity, cell-based; conditions: human, 12 h, 10 µM, compound concentration 10 uM, number of replicates 2
Give just the numeric value; % need not be written.

Consider the reported Population Pyknosed Nuclei (%) for these compounds:
Give recorded Population Pyknosed Nuclei (%) with HEK-293T for the following compound: Cn1cc(-c2ccc(-c3cncc(Cl)c3N3CCC4(CCNC4=O)CC3)cc2)cn1
10

Give recorded Population Pyknosed Nuclei (%) with HEK-293T for the following compound: CN(C)CCCNc1ccnc(Nc2cccc(Cl)c2)n1
8

New cases:
Give recorded Population Pyknosed Nuclei (%) with HEK-293T for the following compound: c1ccc2c(-c3coc4cc(-c5ccc(N6CCNCC6)cc5)cnc34)ccnc2c1
59

Give recorded Population Pyknosed Nuclei (%) with HEK-293T for the following compound: CN1CCc2cc(Nc3ncc(C(F)(F)F)c(NCc4cc[nH]n4)n3)ccc2C1
5

###

test system: Fibroblast; assay: Multiplex assay against human fibroblast; type: toxicity, cell-based; conditions: 24 h, 10 µM, compound concentration 10 uM, number of replicates 2
Below is a list of entries, each paired with its recorded Population Hoechst High Intensity Objects (%) value.
Give just the numeric value; % need not be written.

Give recorded Population Hoechst High Intensity Objects (%) with Fibroblast for the following molecule: CC(C)(C)c1cnc(CSc2cnc(NC(=O)C3CCNCC3)s2)o1 [BMS-387032]
0

Give recorded Population Hoechst High Intensity Objects (%) with Fibroblast for the following molecule: c1ccc2c(-c3coc4cc(-c5ccc(N6CCNCC6)cc5)cnc34)ccnc2c1
0

New cases:
Give recorded Population Hoechst High Intensity Objects (%) with Fibroblast for the following molecule: CC1=C(C)C(=O)C(C(CCCCCC(=O)O)c2ccccc2)=C(C)C1=O (centres undefined) [SERATRODAST]
0

Give recorded Population Hoechst High Intensity Objects (%) with Fibroblast for the following molecule: CC(C)S(=O)(=O)c1ccccc1Nc1nc(N[C@@H]2CCCN(CCCCCCCNC(=O)COc3cccc4c3C(=O)N(C3CCC(=O)NC3=O)C4=O)C2)ncc1Cl (some centres undefined)
1

###

tested on: U2OS; test: Multiplex assay against U2OS; format: toxicity, cell-based; conditions: human, 12 h, 10 µM, compound concentration 10 uM, number of replicates 2
measurement name: Population Tubulin-Different-Phenotype (%)
Give just the numeric value; % need not be written.

Consider the reported Population Tubulin-Different-Phenotype (%) for these compounds:
Using the record for Cc1ccc2c(N)c(C(=O)NC3CCc4cc(N5CC6CCC(C5)N6)ccc4C3)sc2n1.O=CO (stereo not given) , report its Population Tubulin-Different-Phenotype (%).
50

Using the record for Cc1cn(CCN2CCN(c3ccccc3-c3cc(C#N)cc(C(=O)NCCCN4CCCC4)c3)CC2)c2ccccc12 , report its Population Tubulin-Different-Phenotype (%).
91

New cases:
Using the record for c1ccc2c(-c3coc4cc(-c5ccc(N6CCNCC6)cc5)cnc34)ccnc2c1 , report its Population Tubulin-Different-Phenotype (%).
100

###

test system: HEK-293T; assay: Multiplex assay against HEK293T; format: toxicity, cell-based; conditions: human, 12 h, 10 µM, compound concentration 10 uM, number of replicates 2
Below is a list of entries, each paired with its recorded Population Membrane Permeable-Phenotype (%) value.
Give just the numeric value; % need not be written.

Consider the reported Population Membrane Permeable-Phenotype (%) for these compounds:
Give recorded Population Membrane Permeable-Phenotype (%) with HEK-293T for the following compound: CC(C)NC(=O)[C@H]1CCC[C@H]1Nc1nc(Nc2ccc(C(=O)N(C)C3CCN(C)CC3)cc2)ncc1Cl
4

Give recorded Population Membrane Permeable-Phenotype (%) with HEK-293T for the following compound: COc1ccc(CC[C@@H](OC(=O)[C@@H]2CCCCN2C(=O)[C@H](c2cc(OC)c(OC)c(OC)c2)C2CCCCC2)c2cccc(OCCN3CCOCC3)c2)cc1OC
2

Let's switch to this compound now.
Give recorded Population Membrane Permeable-Phenotype (%) with HEK-293T for the following compound: CC(C)S(=O)(=O)c1ccccc1Nc1nc(N[C@@H]2CCCN(CCCCCCCNC(=O)COc3cccc4c3C(=O)N(C3CCC(=O)NC3=O)C4=O)C2)ncc1Cl (stereo partly drawn)
6

###

Below is a list of entries, each paired with its recorded Population Hoechst High Intensity Objects (%) value.
test system: HEK-293T; experiment: Multiplex assay against HEK293T; assay type: toxicity, cell-based; settings: human, 24 h, 1 µM, compound concentration 1 uM, number of replicates 2
Give just the numeric value; % need not be written.

Using the record for CC1=C(C)C(=O)C(C(CCCCCC(=O)O)c2ccccc2)=C(C)C1=O (stereo unspecified) , report its Population Hoechst High Intensity Objects (%).
9

New cases:
Using the record for O=C1Nc2ccc(C(=O)c3ccco3)cc2C1=Cc1cc(Cl)c(O)c(Cl)c1 [GW406108X] , report its Population Hoechst High Intensity Objects (%).
9

Using the record for O=C1NC(=NCc2cccs2)SC1=Cc1ccc2ncccc2c1 , report its Population Hoechst High Intensity Objects (%).
8

###

Below is a list of entries, each paired with its recorded Population Apoptotic (%) value.
test system: HEK-293T; test: Multiplex assay against HEK293T; format: toxicity, cell-based; conditions: human, 48 h, 1 µM, compound concentration 1 uM, number of replicates 2
Give just the numeric value; % need not be written.

Consider the reported Population Apoptotic (%) for these compounds:
Using the record for CCN1C(=O)N(c2c(F)c(OC)cc(OC)c2F)Cc2cnc3[nH]c(CN4CCOCC4)cc3c21 , report its Population Apoptotic (%).
17

Using the record for COC(=O)Nc1nc2c(s1)-c1c(c(-c3cccnc3)nn1-c1ccc(C3(N(C)C)CC3)cc1)CC2.Cl.Cl , report its Population Apoptotic (%).
62

Using the record for C=CC(=O)Nc1cccc(C)c1Nc1ncc2cc(-c3c(Cl)c(OC)cc(OC)c3Cl)ccc2n1 , report its Population Apoptotic (%).
12

Let's switch to this compound now.
Using the record for CCN(CC)C/C=C/C(=O)Nc1cc2c(Nc3ccc(F)c(Cl)c3)ncnc2cc1OCC1CC1 , report its Population Apoptotic (%).
30
